- Test system: NCI-H460
- ASSAY NAME: Growth inhibition of human NCI-H460 cells by sulforhodamine B assay
- Assay type: functional
- STATED CONDITIONS: read-out: pTGI (converted)
I'd appreciate it if you could supply TGI values for the items below.
Give bare numbers, in µM.

// for each molecule below, give its TGI
1. CC1(C)C[C@@H](O)[C@]2(C(=O)O)CC[C@]3(C)C(=CC[C@@H]4[C@@]5(C)C/C(=C\C=C\c6ccccc6)C(=O)C(C)(C)[C@@H]5CC[C@]43C)[C@@H]2C1
2. CC(C)=CC(=O)O[C@@H]1CC(C)(C)C[C@H]2C3=CC[C@@H]4[C@@]5(C)CC[C@H](O)C(C)(C)[C@@H]5CC[C@@]4(C)[C@]3(C)CC[C@@]12C(=O)O [Reduced Lantadene B]
3. CC(C)=CC(=O)O[C@@H]1CC(C)(C)C[C@H]2C3=CC[C@@H]4[C@@]5(C)CCC(=O)C(C)(C)[C@@H]5CC[C@@]4(C)[C@]3(C)CC[C@@]12C(=O)O
4. C/C=C(/C)C(=O)O[C@@H]1CC(C)(C)C[C@H]2C3=CC[C@@H]4[C@@]5(C)CC[C@H](O)C(C)(C)[C@@H]5CC[C@@]4(C)[C@]3(C)CC[C@@]12C(=O)O [Reduced Lantadene A]

Result:
7.59
66.1
14.5
11.7
